B1: NR2F2 (parent)
chain: VAHVESLQEKSQCALEEYVRSQYP

# Variants of: B1
# EXPERIMENT_NOTES: protein stability index of a GFP-peptide fusion (GPS, HEK-293T) (PSI 1-6); higher = more stable;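 further: lentivirally expressed fusions sorted by FACS into six bins by GFP to DsRed ratio, PSI derived from sequencing read proportions per bin multiplied by bin number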
# EXPERIMENTAL_CONTEXT: c terminus: a fixed tail appended
Parameter threshold = 4. Response is yes when protein stability index meets or exceeds it, else no.

Is protein stability index for H3M at or above 4?
no

Is protein stability index for Q12G at or above 4?
no
